# test-name: Purity and stability test (content by HPLC after sealed storage)
# Assay type: physicochemical
# test-settings: sealed storage at 25° C. for 14 days; content by HPLC
property-name: Content of the sample stored at 25° C. for 14 days (%)
# number only, unit % dropped from output

Check out these entries, answers already filled in.
1) CCC(C)CC(C)CCCCCCCCC(=O)NC1CC(O)[C@@H](O)NC(=O)[C@H]2[C@@H](O)CCN2C(=O)[C@H](C(O)CC(N)=O)NC(=O)C(C(O)C(O)c2ccc(O)cc2)NC(=O)[C@@H]2C[C@@H](O)CN2C(=O)[C@H](C(C)O)NC1=O (some centres unmarked) [Example 4] | 99.5
2) CCC(C)CC(C)CCCCCCCCC(=O)NC1CC(O)[C@@H](O)NC(=O)[C@H]2[C@@H](O)CCN2C(=O)[C@H](C(O)CC(N)=O)NC(=O)C(C(O)C(O)c2ccc(O)cc2)NC(=O)[C@@H]2C[C@@H](O)CN2C(=O)[C@H](C(C)O)NC1=O (some centres unmarked) [Comparative example, reference compound] | 95.6
3) CCC(C)CC(C)CCCCCCCCC(=O)NC1CC(O)[C@@H](O)NC(=O)[C@H]2[C@@H](O)CCN2C(=O)[C@H](C(O)CC(N)=O)NC(=O)C(C(O)C(O)c2ccc(O)cc2)NC(=O)[C@@H]2C[C@@H](O)CN2C(=O)[C@H](C(C)O)NC1=O (some centres unmarked) [Example 3] | 99.5
4) CCC(C)CC(C)CCCCCCCCC(=O)NC1CC(O)[C@@H](O)NC(=O)[C@H]2[C@@H](O)CCN2C(=O)[C@H](C(O)CC(N)=O)NC(=O)C(C(O)C(O)c2ccc(O)cc2)NC(=O)[C@@H]2C[C@@H](O)CN2C(=O)[C@H](C(C)O)NC1=O (some centres unmarked) [Example 1] | 93.5

Bench note: what Content of the sample stored at 25° C. for 14 days did CCC(C)CC(C)CCCCCCCCC(=O)NC1CC(O)[C@@H](O)NC(=O)[C@H]2[C@@H](O)CCN2C(=O)[C@H](C(O)CC(N)=O)NC(=O)C(C(O)C(O)c2ccc(O)cc2)NC(=O)[C@@H]2C[C@@H](O)CN2C(=O)[C@H](C(C)O)NC1=O (some centres unmarked) [Example 2] show? 99.6

Data origin, for the record: patent US8969309B2
